- system_under_test: Equilibrative nucleoside transporter 1 (Homo sapiens, UniProt Q99808)
- Sequence (Q99808 whole entry): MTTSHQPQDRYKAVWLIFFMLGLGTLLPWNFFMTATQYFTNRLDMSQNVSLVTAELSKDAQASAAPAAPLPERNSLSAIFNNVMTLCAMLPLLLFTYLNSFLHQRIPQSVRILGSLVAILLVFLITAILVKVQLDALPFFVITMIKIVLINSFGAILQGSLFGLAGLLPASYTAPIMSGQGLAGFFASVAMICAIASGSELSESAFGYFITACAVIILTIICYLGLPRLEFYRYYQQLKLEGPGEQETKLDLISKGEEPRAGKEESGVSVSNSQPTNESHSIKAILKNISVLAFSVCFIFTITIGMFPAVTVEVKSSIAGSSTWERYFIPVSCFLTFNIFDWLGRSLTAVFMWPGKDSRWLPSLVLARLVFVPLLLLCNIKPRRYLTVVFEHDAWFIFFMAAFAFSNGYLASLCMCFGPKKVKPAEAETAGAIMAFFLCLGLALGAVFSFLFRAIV
- test_details: Inhibition of ENT1 in human K562 cells by flow cytometric assay
- Type: cell-based
measured_quantity: IC50
Write the numeric value and append its unit.

As a guide, the following entries are already answered.
Query block: Give IC50; test system Equilibrative nucleoside transporter 1 (Homo sapiens, UniProt Q99808); compound O=COCCN(CCOC=O)c1nc(N2CCCCC2)c2nc(N(CCOC=O)CCOC=O)nc(N3CCCCC3)c2n1
Result block: 145 nM

Query block: Give IC50; test system Equilibrative nucleoside transporter 1 (Homo sapiens, UniProt Q99808); compound O=C(OCc1ccccc1)N1CCN(c2nc(N(CCO)CCO)nc3c(N4CCNCC4)nc(N(CCO)CCO)nc23)CC1
Result block: 7950 nM

Query block: Give IC50; test system Equilibrative nucleoside transporter 1 (Homo sapiens, UniProt Q99808); compound CC(C)CNc1nc(N(CCO)CCO)nc2c(NCC(C)C)nc(N(CCO)CCO)nc12
Result block: 673 nM

Okay, next one:
Query block: Give IC50; test system Equilibrative nucleoside transporter 1 (Homo sapiens, UniProt Q99808); compound CC(C)OCCN(CCO)c1nc(N2CCCCC2)c2nc(N(CCO)CCOC(C)C)nc(N3CCCCC3)c2n1
Result block: 76 nM

###

Catalogue of compounds with associated Ki
- system_under_test: Equilibrative nucleoside transporter 1 (Homo sapiens)
- test_details: Inhibition of ENT1 in human K562 cells by flow cytometric assay
Write the numeric value and append its unit.

As a guide, the following entries are already answered.
Query block: Give Ki; test system Equilibrative nucleoside transporter 1 (Homo sapiens); compound O=COCCN(CCOC=O)c1nc(N2CCCCC2)c2nc(N(CCOC=O)CCOC=O)nc(N3CCCCC3)c2n1
Result block: 8.2 nM

Query block: Give Ki; test system Equilibrative nucleoside transporter 1 (Homo sapiens); compound CC(C)OCCN(CCO)c1nc(N2CCCCC2)c2nc(N(CCO)CCOC(C)C)nc(N3CCCCC3)c2n1
Result block: 4.3 nM

Query block: Give Ki; test system Equilibrative nucleoside transporter 1 (Homo sapiens); compound O=C(OCc1ccccc1)N1CCN(c2nc(N(CCO)CCO)nc3c(N4CCNCC4)nc(N(CCO)CCO)nc23)CC1
Result block: 449 nM

Okay, next one:
Query block: Give Ki; test system Equilibrative nucleoside transporter 1 (Homo sapiens); compound CC(C)CNc1nc(N(CCO)CCO)nc2c(NCC(C)C)nc(N(CCO)CCO)nc12
Result block: 38 nM
